# Test summary: Solubility of the compound in sodium phosphate buffer at pH 7.4
# Type: physicochemical
solubility values for the compounds below.
Just the number in µM, nothing appended.

{"Compound structure": "CCCCCCCCSCC(=O)C(F)(F)F", "solubility, µM": 200}

State the recorded solubility for this entry: `CCCCCCCCS(=O)(=O)CC(O)(O)C(F)(F)F`
1500

====

# Target or system: Juvenile hormone esterase (Trichoplusia ni, UniProt P30809+P30810)
# Test summary: Inhibition of Trichoplusia ni (cabbage looper) juvenile hormone esterase isolated from fifth-intsar larval stage using [3H]JH 3 as substrate incubated for 10 min prior to substrate addition measured after 15 min by liquid scintillation counting
# Type: protein assay
Quantity name: IC50 (nM)
Just the number in nM, nothing appended.

# count of solved cases: 2
{"Compound structure": "CCCCCCCCSCC(=O)C(F)(F)F", "Result unit": "nM", "Value reported": 1.6}
{"Compound structure": "CCCCCCCCCCSCC(=O)C(F)(F)F", "Result unit": "nM", "Value reported": 20}

# ---- query molecule ----
Please tell me: IC50 of `CCCCCCCCS(=O)(=O)CC(O)(O)C(F)(F)F` , system Juvenile hormone esterase (Trichoplusia ni, UniProt P30809+P30810)?
147
